Source: patent US20090131459A1

biological target: human MPO (Homo sapiens, UniProt P05164); assay: MPO inhibition screen (TMB oxidation, with or without added tyrosine); conditions: in the presence of tyrosine
Sequence (P05164 49-745): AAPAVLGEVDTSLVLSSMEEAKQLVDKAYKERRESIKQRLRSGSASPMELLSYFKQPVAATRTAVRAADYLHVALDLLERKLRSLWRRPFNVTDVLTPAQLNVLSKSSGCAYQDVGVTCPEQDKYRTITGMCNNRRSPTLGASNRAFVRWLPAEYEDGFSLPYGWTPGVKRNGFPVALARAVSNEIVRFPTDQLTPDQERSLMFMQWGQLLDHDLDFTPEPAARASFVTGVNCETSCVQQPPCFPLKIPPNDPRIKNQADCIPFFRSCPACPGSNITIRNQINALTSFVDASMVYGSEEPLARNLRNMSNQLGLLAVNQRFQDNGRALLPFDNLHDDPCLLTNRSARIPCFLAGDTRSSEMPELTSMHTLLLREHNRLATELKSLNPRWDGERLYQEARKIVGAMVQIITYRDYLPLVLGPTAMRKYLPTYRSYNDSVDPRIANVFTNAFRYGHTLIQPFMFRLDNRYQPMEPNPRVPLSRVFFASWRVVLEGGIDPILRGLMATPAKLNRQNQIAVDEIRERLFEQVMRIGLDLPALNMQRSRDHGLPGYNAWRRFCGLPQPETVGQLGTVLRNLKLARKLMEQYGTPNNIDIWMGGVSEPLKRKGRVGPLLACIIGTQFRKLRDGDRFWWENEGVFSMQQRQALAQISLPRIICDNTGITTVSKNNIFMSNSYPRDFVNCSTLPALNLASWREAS
recorded.endpoint: pIC50
Scale note: pIC50 = -log10(concentration in M).

Can you share its pIC50? I mean this molecule: CCOC(C)Cn1c(=S)[nH]c(=O)c2[nH]cnc21 (racemic) [Example 5, 3-(2-Ethoxy-propyl)-2-thioxanthine]
6.30
